Test system: SNB-19 CNS
MEASUREMENT NOTES: NCI tumour cell line growth inhibition, 48 h
READOUT KIND: TGI (µM)
Numbers only, in µM.

- COc1cc2c(C)cc(O)cc2c2cc(O)c(C)cc12: 21.4

Q: Fill in reported TGI for this entry: COc1ccc(-c2nc3ccc(-c4nc5ccc(N6CCN(c7ccccc7)CC6)cc5[nH]4)cc3[nH]2)cc1OC
Ans: 3.59

* * *

System: A498 renal
MEASUREMENT NOTES: NCI tumour cell line growth inhibition, 48 h; in the data active means GI50 below about 0.43 µM; inactive means the rest
Output constraint: value belongs to active, inactive

For orientation, consider the following solved cases.
* CN1C(=O)N(C)C2C1NN=c1s/c(=C\c3ccc(Cl)cc3Cl)c(=O)n12 (stereo unspecified) | active
* Nc1nc(/C=C\c2ccc([N+](=O)[O-])s2)nc(N2CCCC2)n1 | inactive
* C=CCCCCOc1ccccc1-c1cnc(OCCCCC=C)n1C | inactive
* O=C1Nc2ccccc2/C1=N\[O-].O=C1Nc2ccccc2/C1=N\[O-].[Cu+2] | inactive
* COc1ccc(Nc2nnc(-c3cc(O)ccc3O)s2)cc1 | inactive

Q: I'd appreciate the recorded outcome for CC(C)Oc1ccc2cc(-c3nn(CC4CCNCC4)c4ncnc(N)c34)ccc2c1 from this test.
Ans: inactive

* * *

System: OVCAR-8 ovarian
MEASUREMENT NOTES: NCI tumour cell line growth inhibition, 48 h
Can you tell me TGI for the items I'm about to list?
Numbers only, in µM.

- Cc1nc2c(nc1C)-c1[nH]c3c(c1C(=O)C2=O)CCCC3=O: 2.88
- O=C(Nc1nc(C23CC4CC(CC(C4)C2)C3)cs1)c1cc2ccc(O)cc2oc1=O: 90.9
- Nc1nc(N)c2c3c(cnc2n1)CC(c1ccccc1)CC3 (stereo not given): 26.6

We next turn to a different molecule, shown below.
Q: Fill in reported TGI for this entry: CC(=O)c1c(C)n([O-])c2cc(Cl)c(Cl)cc2[n+]1=O
Ans: 89.9

* * *

Can you tell me TGI for the items I'm about to list?
Tested on: DMS 114 small cell lung
MEASUREMENT NOTES: NCI tumour cell line growth inhibition, 48 h

- CCC(/C=C/C1OC(=O)C=CC1C)=C\C(C)C/C=C/C(C)=C/C(C)C(=O)C(C)C(O)C(C)C/C(C)=C/C(=O)O (stereo unspecified): 4.18 µM
- N#CC(C(=O)C(=O)C(C#N)c1ccc(Br)cc1)c1ccc(Br)cc1 (stereo unspecified): 26.5 µM
- COC1(OC)C(N(C)C)=C(Cl)C(=O)/C1=C/C=O: > 100 µM
- CC1c2c(Cl)nc3ccccc3c2Oc2c1c(Cl)nc1ccccc21: > 100 µM
- O=C(Nc1nc(=S)c2c(ncn2CCOC(=O)c2ccccc2)[nH]1)c1ccccc1: > 100 µM

Count: 3. Required value per item: TGI.
1. CCN1CCC(O)(c2ccc(OC)cc2)C(C(=O)c2ccc(OC)cc2)C1 (stereo unspecified)
2. CCOC(=O)C(=[N+]=[N-])[Si](C)(C)C
3. O=C1/C(=C/c2ccc(Cl)cc2)CCC1CCN1CCOCC1 (stereo unspecified)

Ans:
["40.8 µM", "> 100 µM", "> 100 µM"]

Count: 3. Required value per item: TGI.
1. CCCNC(=S)NNC(=O)CSc1nc(-c2ccccc2)c(-c2ccccc2)[nH]1
2. Cc1ccccc1N1C(=O)C2C=CC(n3[nH]c(=O)n(Cc4ccccc4)c3=O)CC2C1=O (stereo unspecified)
3. OCC1OC(c2nc(C3=NCCCN3)cs2)C(O)C1O (stereo unspecified)

Ans:
["> 100 µM", "> 100 µM", "> 100 µM"]

* * *

Can you tell me TGI for the items I'm about to list?
Test system: LOX IMVI melanoma
MEASUREMENT NOTES: NCI tumour cell line growth inhibition, 48 h

Study these solved cases before continuing.
- O=C1/C(=C/c2cccc(Cl)c2Cl)N=C(c2ccccc2)N1C1CC1: 17.4 µM
- CCOc1ccc(NC(=O)CC#N)cc1: > 100 µM
- CCCCCCc1cc2cc(C(=O)Nc3ccccc3)c(=N)oc2cc1O: 12.5 µM
- CCCC(=O)Nc1cc2c3c(c1)CCCN3CCC2: > 10 µM
- COc1ccc2cc(/C=N/NC(=O)Nc3ccccc3)ccc2c1: > 100 µM

Q: Fill in reported TGI for this entry: Clc1ccc2[nH]cc(-c3nnnn3-c3ccccc3)c2c1
Ans: > 53.5 µM

* * *

Test system: SF-539 CNS
MEASUREMENT NOTES: NCI tumour cell line growth inhibition, 48 h
Decision: TGI >= 30 µM yields TRUE, all other cases yield FALSE.

Q: // inclusive: TGI at least 30 µM? input: COc1ccc(NC(=O)/C(Cc2cc(=O)oc3cc(O)ccc23)=N\NC(C)(C)C)c(OC)c1
Ans: TRUE

Q: // inclusive: TGI at least 30 µM? input: COc1c(OC[C@H](O)CN2CCOCC2)ccc2c3n(c(=NC(=O)c4cccnc4C)nc12)CCN3
Ans: FALSE

Q: // inclusive: TGI at least 30 µM? input: C[C@H](CCC(=O)O)[C@H]1CC[C@H]2[C@@H]3CC[C@@H]4C[C@H](O)CC[C@]4(C)[C@H]3C[C@H](O)[C@]12C
Ans: TRUE

Q: // inclusive: TGI at least 30 µM? input: O=C(CCc1n[nH]c(=S)o1)Nc1ccccc1C(F)(F)F
Ans: TRUE

Q: // inclusive: TGI at least 30 µM? input: CC(=O)OC12C=CC(=O)N1c1ccccc1C(=O)O2 (stereo not given)
Ans: TRUE

Q: // inclusive: TGI at least 30 µM? input: COc1cc2c(C)cc(O)cc2c2cc(O)c(C)cc12
Ans: FALSE

Q: // inclusive: TGI at least 30 µM? input: N#CCCN(C(=O)Nc1ccccc1)[C@H]1CCCC[C@@H]1N(C(=O)Nc1ccccc1)c1ccccc1
Ans: TRUE

Q: // inclusive: TGI at least 30 µM? input: CC(=O)c1[nH]c(NCc2ccccc2)c(C(=S)Nc2ccccc2)c1N
Ans: TRUE

Q: // inclusive: TGI at least 30 µM? input: CC(C)=CC[C@]12CCN[C@H]1N(S(=O)(=O)c1ccccc1)c1ccccc12
Ans: TRUE

Q: // inclusive: TGI at least 30 µM? input: Cc1ccc(NC(=O)CCc2cc(C(C)(C)C)nc(=S)[nH]2)cc1C
Ans: TRUE

* * *

Can you tell me GI50 for the items I'm about to list?
Tested on: RXF 393 renal
MEASUREMENT NOTES: NCI tumour cell line growth inhibition, 48 h

• COc1cc(F)ccc1-c1ncnc(Nc2cccc(CS(C)(=N)=O)c2)n1 (stereo unspecified) = 0.239 µM
• COc1ccc(Nc2nnc(-c3cc(O)ccc3O)s2)cc1 = 30.6 µM
• COc1ccc(/C=C2/N=C(c3ccccc3)N(c3c(C)n(C)n(-c4ccccc4)c3=O)C2=O)cc1OC = > 100 µM
• CCOC(=O)C(Cc1ccc(CCCC(=O)NCCC(=O)Nc2ccc3nc(C)sc3c2)cc1)C(=O)OCC = 36.4 µM
• COc1ccc(C(=O)/C=C/c2cc(-c3cc(OC)c(OC)c(OC)c3)n[nH]2)cc1OC = 1.35 µM

We next turn to a different compound, shown below.
Q: Fill in reported GI50 for this entry: O=C1/C(=C/c2cccc(Cl)c2Cl)N=C(c2ccccc2)N1C1CC1
Ans: 23.9 µM

* * *

Can you tell me TGI for the items I'm about to list?
Test system: HT29 colon
MEASUREMENT NOTES: NCI tumour cell line growth inhibition, 48 h

Study these solved cases before continuing.
* COc1cc2c(C)cc(O)cc2c2cc(O)c(C)cc12 | 45.8 µM
* Cn1cc(C2=C(c3cn(CCCCO)c4ccccc34)C(=O)NC2=O)c2ccccc21 | > 25 µM
* Cc1nn(-c2ccccc2)c2c1C(c1ccc(Cl)cc1)NC(=S)N2 (stereo unspecified) | > 100 µM
* Oc1[nH]c2ccccc2c1N=NC(=S)Nc1cccc(Cl)c1 | 28.4 µM
* NC(=O)C(C(N)=O)=C(O)C(=O)/C=C(\O)c1ccccc1 | > 100 µM
* COc1ccc2[nH]cc(C3(c4c[nH]c5ccc(OC)cc45)C(=O)Nc4ccc(F)cc43)c2c1 | 6.14 µM

Count: 3. Required value per item: TGI.
1. CC(C)=CC[C@]12CCN[C@H]1N(S(=O)(=O)c1ccccc1)c1ccccc12
2. O=C1C(c2c(O)[nH]c3ccc(F)cc23)=Nc2ccccc21
3. CNCC#Cc1c(F)ccc2c1/C(=C/c1[nH]ccc1OC)C(=O)N2

Ans:
["39 µM", "> 100 µM", "1.82 µM"]

* * *

System: IGROV1 ovarian
MEASUREMENT NOTES: NCI tumour cell line growth inhibition, 48 h
Can you tell me TGI for the items I'm about to list?

• CC(C)=CC[C@]12CCN[C@H]1N(S(=O)(=O)c1ccccc1)c1ccccc12 = 30.8 µM

Count: 7. Required value per item: TGI.
1. Cc1ccccc1N1C(=O)C2C=CC(n3[nH]c(=O)n(Cc4ccccc4)c3=O)CC2C1=O (stereo unspecified)
2. Cc1ccc(-n2c(N)c(C#N)c3[nH]nc(N)c3c2=O)cc1
3. OC1C#CCSCC#C/C=C\1 (stereo unspecified)
4. COc1ccc(-c2nn(-c3ccc(NC(=O)c4ccc(Cl)c(Cl)c4)cc3)cc2-c2ccncc2)cc1Cl
5. CC12CC(c3ccccc3O1)C(C(=O)Nc1ccc(Cl)cc1Cl)C(=O)N2 (stereo unspecified)
6. CCOC(=O)C(Cc1ccc(CCCC(=O)NCCC(=O)Nc2ccc3nc(C)sc3c2)cc1)C(=O)OCC
7. CC1OC(OC2C(O)COC(OC3C(C)OC(OC4C(OC(=O)[C@]56CCC(C)(C)C[C@@H]5C5=CCC7[C@@]8(C)C[C@H](O)[C@H](OC9OC(CO)C(O)C(O)C9O)[C@@](C)(CO)[C@@H]8CC[C@@]7(C)[C@]5(C)CC6)OCC(O)C4O)C(O)C3OC3OCC(O)(CO)C3O)C2O)C(O)C(O)C1O (stereo partly specified)

Ans:
["> 100 µM", "> 100 µM", "> 100 µM", "> 50 µM", "50.9 µM", "> 100 µM", "31.1 µM"]

Count: 7. Required value per item: TGI.
1. Cn1c(=O)n(C2(C)C[Se]C2)c2ccccc21
2. Cn1cc(NC(=O)Nc2cc(C(=O)Nc3cc(C(=O)Nc4ccc(S(=O)(=O)O)c5cc(S(=O)(=O)O)ccc45)n(C)c3)n(C)c2)cc1C(=O)Nc1cc(C(=O)Nc2ccc(S(=O)(=O)O)c3cc(S(=O)(=O)O)ccc23)n(C)c1
3. CN1C(=O)N(C)C2C1NN=c1s/c(=C\c3ccc(Cl)cc3Cl)c(=O)n12 (stereo unspecified)
4. O=c1cnn(C/C=C/CO)c(=O)[nH]1
5. COC(=O)c1ccccc1/C=C1\Cc2ccc(C)c(C)c2C1=O
6. COc1cc(F)ccc1-c1ncnc(Nc2cccc(CS(C)(=N)=O)c2)n1 (stereo unspecified)
7. COc1ccc(/C=C2/N=C(c3ccccc3)N(c3c(C)n(C)n(-c4ccccc4)c3=O)C2=O)cc1OC

Ans:
> 100 µM
> 100 µM
> 50.1 µM
> 100 µM
> 100 µM
> 100 µM
> 100 µM

Count: 6. Required value per item: TGI.
1. O=C(Nc1ccncc1)C(=O)c1cn(S(=O)(=O)c2ccc(F)cc2)c2ccccc12
2. COc1ccc(/C=C2\N=C(SC)N(CN3CCOCC3)C2=O)cc1
3. O=C1C=CC(=O)c2cc3cc(CBr)ccc3cc21
4. C/C(Cc1ccccc1)=N\NC(N)=S
5. O=[N+]([O-])/C(C(Cl)=C(Cl)Cl)=C(/Cl)Sc1ccccc1
6. c1ccc(CCNc2ccccn2)nc1

Ans:
1. > 100 µM
2. > 100 µM
3. > 73.9 µM
4. > 100 µM
5. 4.69 µM
6. > 100 µM
